// provenance: paper PMC11239005

# Test Description: GSH reactivity assay
# Format: physicochemical
# Details: phosphate buffer, pH 7.4, 37°C; read-out: t1/2 w/o GSH
Field: half-life at 20 μM. Provide a value for each of the compounds that follow.

Query N#Cc1ccc(/C=C2/C(=O)/C(=C/c3ccc(C#N)cc3)C23CCNCC3)cc1 [Up284, reference compound] yields half-life at 20 μM of > 360 min

Query Cl.Cl.N#Cc1ccc(/C=C2/C(=O)/C(=C/c3ccc(C#N)cc3)C23CCN(C(=N)N)CC3)cc1 yields half-life at 20 μM of > 360 min

====

# System: HeLa
# Test Description: MTT cytotoxicity assay, HeLa
# Type: cell-based
# Details: Homo sapiens, 72 h
Experimental Readout: pIC50
Scale: negative log10 of molar concentration, which is what pIC50 denotes.

Value sought: pIC50, system HeLa, item Cl.Cl.N#Cc1ccc(/C=C2/C(=O)/C(=C/c3ccc(C#N)cc3)C23CCN(C(=N)N)CC3)cc1 . Result: 6.67

Value sought: pIC50, system HeLa, item N#Cc1ccc(/C=C2/C(=O)/C(=C/c3ccc(C#N)cc3)C23CCNCC3)cc1 [Up284, reference compound] . Result: 7.40

====

# Test Description: Single dose plasma pharmacokinetics in CD1 mice
# Format: in vivo, mouse
# Details: male, CD1, mouse; plasma, PO 40 mg/kg
Experimental Readout: AUC(0-t)
// return the numeric value with its unit appended

Query Cl.Cl.N#Cc1ccc(/C=C2/C(=O)/C(=C/c3ccc(C#N)cc3)C23CCN(C(=N)N)CC3)cc1 yields AUC(0-t) of 118 ng·h/mL

====

# Test Description: Human plasma protein binding, equilibrium dialysis
# Type: in vitro ADME
# Details: pH 7.4, dialysis 5 h
Experimental Readout: fraction unbound at 5 h, 1 μM
Write the number on its own, no unit after it.

Query Cl.Cl.N#Cc1ccc(/C=C2/C(=O)/C(=C/c3ccc(C#N)cc3)C23CCN(C(=N)N)CC3)cc1 yields fraction unbound at 5 h, 1 μM of 0.009

====

# System: HepG2
# Test Description: MTT cytotoxicity assay, HepG2
# Type: cell-based
# Details: Homo sapiens, HepG2, 72 h
Field: IC50. Provide a value for each of the molecules that follow.
Use µM as the unit, but write only the number.

Query Cl.Cl.N#Cc1ccc(/C=C2/C(=O)/C(=C/c3ccc(C#N)cc3)C23CCN(C(=N)N)CC3)cc1 yields IC50 of 0.241

Query N#Cc1ccc(/C=C2/C(=O)/C(=C/c3ccc(C#N)cc3)C23CCNCC3)cc1 [Up284, reference compound] yields IC50 of 0.09

====

# Test Description: Single dose plasma pharmacokinetics in CD1 mice
# Type: in vivo, mouse
# Details: male, CD1, mouse, plasma, po, 40 mg/kg, PO 40 mg/Kg, 30 min; read-out: Plasma concentration, Mean
# Method: For single dose pharmacokinetic studies, plasma samples (40 μL) were mixed with 200 μL of a water-methanol (1:9, v/v) containing the internal standard elacridar at 80 ng/mL. […] The lower limit of quantitation (LLOQ) in plasma was 10 ng/mL. Pharmacokinetic parameters were calculated from mean concentration-time data using non-compartmental methods in Phoenix WinNonlin version 8.3 (Certara, Princeton, NJ). […] The AUClast was calculated using the log-linear trapezoidal method. […]
Experimental Readout: concentration at 30 min (µg/mL)
Use µg/mL as the unit, but write only the number.

Query Cl.Cl.N#Cc1ccc(/C=C2/C(=O)/C(=C/c3ccc(C#N)cc3)C23CCN(C(=N)N)CC3)cc1 yields concentration at 30 min of 0.06

====

# Test system: HFF
# Test Description: MTT cytotoxicity assay, HFF
# Format: cell-based
# Details: Homo sapiens, HFF (normal cells), 72 h
Field: IC50. Provide a value for each of the compounds that follow.

Query N#Cc1ccc(/C=C2/C(=O)/C(=C/c3ccc(C#N)cc3)C23CCNCC3)cc1 [Up284, reference compound] yields IC50 of > 2500 nM

Query Cl.Cl.N#Cc1ccc(/C=C2/C(=O)/C(=C/c3ccc(C#N)cc3)C23CCN(C(=N)N)CC3)cc1 [RA475] yields IC50 of > 2500 nM

====

# Test Description: LogD measurement, shake-flask octanol/PBS pH 7.4
# Type: physicochemical
# Details: pH 7.4, single injections 1-3
Experimental Readout: logD

Query Cl.Cl.N#Cc1ccc(/C=C2/C(=O)/C(=C/c3ccc(C#N)cc3)C23CCN(C(=N)N)CC3)cc1 yields logD of 1.58

====

# Test Description: Single dose plasma pharmacokinetics in CD1 mice
# Assay type: in vivo, mouse
# Details: male, CD1, mouse, plasma, po, 40 mg/kg, PO 40 mg/Kg, 120 min
Experimental Readout: concentration at 120 min

Query Cl.Cl.N#Cc1ccc(/C=C2/C(=O)/C(=C/c3ccc(C#N)cc3)C23CCN(C(=N)N)CC3)cc1 yields concentration at 120 min of 0.02 µg/mL

====

# Tested on: PEA2
# Test Description: MTT cytotoxicity assay, PEA2
# Format: cell-based
# Details: Homo sapiens; PEA2, 72 h, MTT; read-out: IC50
Sorting guide: entries reporting IC50 beneath 0.3 µM go in the fulfilled pile, the rest go in the not fulfilled pile.

INPUT: Given N#Cc1ccc(/C=C2/C(=O)/C(=C/c3ccc(C#N)c(F)c3)C23CCN(C(=N)N)C3)cc1F , is recorded IC50 strictly lower than 0.3 µM?
OUTPUT: not fulfilled

INPUT: Given N#Cc1ccc(/C=C2/C(=O)/C(=C/c3ccc(C#N)c(F)c3)C23CCN(C(=N)N)CC3)cc1F , is recorded IC50 strictly lower than 0.3 µM?
OUTPUT: not fulfilled

INPUT: Given N#Cc1ccc(/C=C2/C(=O)/C(=C/c3ccc(C#N)cc3)C23CCN(C(=N)N2CCOCC2)CC3)cc1 , is recorded IC50 strictly lower than 0.3 µM?
OUTPUT: not fulfilled

INPUT: Given N#Cc1ccc(/C=C2/C(=O)/C(=C/c3ccc(C#N)cc3)C23CCN(C(=N)N)C3)cc1 , is recorded IC50 strictly lower than 0.3 µM?
OUTPUT: not fulfilled

INPUT: Given N#Cc1ccc(/C=C2/C(=O)/C(=C/c3ccc(C#N)cc3)C23CCNCC3)cc1 [Up284, reference compound] , is recorded IC50 strictly lower than 0.3 µM?
OUTPUT: fulfilled

====

# Test Description: Single dose plasma pharmacokinetics in CD1 mice
# Type: in vivo, mouse
# Details: male, CD1, mouse, plasma, po, 40 mg/kg, PO 40 mg/Kg, 15 min
# Procedure: For single dose pharmacokinetic studies, plasma samples (40 μL) were mixed with 200 μL of a water-methanol (1:9, v/v) containing the internal standard elacridar at 80 ng/mL. […] The lower limit of quantitation (LLOQ) in plasma was 10 ng/mL. Pharmacokinetic parameters were calculated from mean concentration-time data using non-compartmental methods in Phoenix WinNonlin version 8.3 (Certara, Princeton, NJ). […] The AUClast was calculated using the log-linear trapezoidal method. […]
Experimental Readout: concentration at 15 min (ng/mL)
Use ng/mL as the unit, but write only the number.

Query Cl.Cl.N#Cc1ccc(/C=C2/C(=O)/C(=C/c3ccc(C#N)cc3)C23CCN(C(=N)N)CC3)cc1 yields concentration at 15 min of 141

====

# Test Description: Single dose plasma pharmacokinetics in CD1 mice
# Format: in vivo, mouse
# Details: male, CD1, mouse; plasma, IV 10 mg/kg
# Experimental: For single dose pharmacokinetic studies, plasma samples (40 μL) were mixed with 200 μL of a water-methanol (1:9, v/v) containing the internal standard elacridar at 80 ng/mL. […] The lower limit of quantitation (LLOQ) in plasma was 10 ng/mL. Pharmacokinetic parameters were calculated from mean concentration-time data using non-compartmental methods in Phoenix WinNonlin version 8.3 (Certara, Princeton, NJ). […] The AUClast was calculated using the log-linear trapezoidal method. […]
Experimental Readout: AUC(0-t) (ng·h/mL)
Use ng·h/mL as the unit, but write only the number.

Query Cl.Cl.N#Cc1ccc(/C=C2/C(=O)/C(=C/c3ccc(C#N)cc3)C23CCN(C(=N)N)CC3)cc1 [RA475] yields AUC(0-t) of 2730

====

# System: HCC1395
# Test Description: MTT cytotoxicity assay, HCC1395
# Assay type: cell-based
# Details: Homo sapiens; HCC1395, 72 h, MTT; read-out: IC50
Experimental Readout: IC50 (nM)
Use nM as the unit, but write only the number.

Value sought: IC50, system HCC1395, item N#Cc1ccc(/C=C2/C(=O)/C(=C/c3ccc(C#N)cc3)C23CCNCC3)cc1 [Up284, reference compound] . Result: 120

====

# Test Description: Single dose plasma pharmacokinetics in CD1 mice
# Type: in vivo, mouse
# Details: male, CD1, mouse, plasma, ip, 40 mg/kg, IP 40 mg/Kg, 480 min; read-out: Plasma concentration, Group A-D
Experimental Readout: concentration at 480 min (ng/mL)
Use ng/mL as the unit, but write only the number.

Query Cl.Cl.N#Cc1ccc(/C=C2/C(=O)/C(=C/c3ccc(C#N)cc3)C23CCN(C(=N)N)CC3)cc1 yields concentration at 480 min of 105
